- Tested on: HCT-15 colon
- test protocol: NCI tumour cell line growth inhibition, 48 h
Please go through the items and note down their TGI.

May I ask what TGI has been recorded for `COc1ccc(OC)c(C2=C(c3cn(C)c4ccccc34)C(=O)NC2=O)c1` ?
> 25 µM

Entry under review: `O=[N+]([O-])C(C(Cl)=C(Cl)Cl)=C(N1CCCCC1)N1CCCCC1` . Reported TGI?
> 100 µM

Need TGI, item `COc1ccccc1N1CCN(S(=O)(=O)c2ccc(Cl)cc2)C1=N`
> 100 µM

For the compound `CCOC(=O)c1ccc(N=C2Sc3nc4ccccc4n3C2=Nc2ccc(C(=O)OCC)cc2)cc1` , what TGI is on record?
> 100 µM

Returns the measured TGI for the input compound. Input: CN1CCS(=O)(=O)NC(Cc2ccccc2)C(=O)N2CCCC2C1=O (stereo not drawn)
> 100 µM

// TGI lookup, key: `COC1(OC)CCN(Cc2ccccc2)C1=O`
38.6 µM

Given the compound Nc1c(C(=O)Nc2cccc(Cl)c2)sc2nc3c(cc12)C(O)CCC3 (stereo not drawn) , what is its reported TGI?
> 100 µM

Find the recorded TGI belonging to `Nc1ccc(Oc2ccc(C34CC5C6CC7(c8ccc(Oc9ccc(N)cc9)cc8)CC5C(C3)C(C7)C6C4)cc2)cc1` and report it.
> 100 µM

For the compound `COc1cc(-c2nc(N)c(C#N)c3c2CCS(=O)(=O)c2ccc(C)cc2-3)cc(OC)c1OC` , what TGI is on record?
> 100 µM

Could you share which TGI value was measured for `COc1cc2c(Nc3ccc(-c4ccc(N)cc4)cc3)ncnc2c(OC)c1OC` ?
> 85.7 µM

So what's the measured TGI for this one? CC(=O)OC(COc1ccc2c(c1)[n+]([O-])nc(N)[n+]2[O-])CN1CCCCC1 (stereo not drawn)
31.6 µM

Given the compound `COc1cccc2nc(Nc3cccc(NC(=O)c4ccc(N5CCN(C)CC5)c(C(F)(F)F)c4)c3)ccc12` , what is its reported TGI?
2.03 µM

Give the measured TGI of Cc1cn(C2CC(O)C(Cn3nncc3Cn3cnc4c(N)ncnc43)O2)c(=O)[nH]c1=O (stereo not drawn) .
> 100 µM

Reported TGI for `COc1ccccc1CNCCCN1C(=O)c2ccc3c4c(ccc(c24)C1=O)C(=O)N(CCCNCCCCNCCCN)C3=O` : what is it?
5.73 µM

What measured TGI goes with `COc1cc(/C=C2\CCC/C(=C\c3cc(CN4CCCC4)c(O)c(OC)c3)C2=O)cc(CN2CCCC2)c1O` ?
7.87 µM

Could you tell me which TGI is on file for `Cc1cc(-c2nc3cc(F)ccc3s2)ccc1N` ?
> 100 µM

Param item = `NC(N)=N/N=C/c1c(-c2ccc(Cl)c([N+](=O)[O-])c2)nc2sccn12` ; retrieve measured TGI.
3.5 µM

Given the compound c1ccc2cc(C3NCCc4[nH]cnc43)ccc2c1 (stereo not drawn) , what is its reported TGI?
> 100 µM

Value lookup for TGI; key = `C=C1N(C)c2ccc(S(=O)(=O)c3ccc4c(c3)C(C)(C)C(=C)N4C)cc2C1(C)C`
> 100 µM

If you can, please state the reported TGI value of `Cc1nc2ccc(-n3ncc(C(=O)c4cc5ccccc5[nH]4)c3N)cc2[nH]1` .
36.6 µM

Look up TGI for this compound: COc1ccc(C2=C(c3ccccc3)C(=O)N3CCCC3C2)cc1 (stereo not drawn)
> 100 µM

I would be grateful if you could share the reported TGI for `COc1cc(C2C(C(=O)NCc3ccccc3)=C(C)NC(C)=C2C(=O)NCc2ccccc2)ccc1O` .
> 100 µM

Name the reported TGI value associated with the compound `O=C(O)c1ccc(CSc2nc3ccccc3[nH]2)cc1`
> 100 µM

----------
Kindly state TGI for each of the entries shown.
- Tested on: SF-539 CNS
- test protocol: NCI tumour cell line growth inhibition, 48 h
Where a SMILES comes first, the peptide text is derived from it. [ ]: non-standard residue; d: D form. The star is where a group is joined. ξ: configuration not given here. NMeY = CN[C@@H](Cc1ccc(O)cc1)C(=O)O; Cbz = O=C(OCc1ccccc1)*; ξA = CC(N)C(=O)O

Given `CC(C)[C@@]12C[C@@H](OC(=O)COC(=O)c3ccccc3)[C@@](C)(O1)[C@@H]1CC[C@@H](C)[C@H]1[C@@H]2OC(=O)/C=C/c1ccccc1` , state its recorded TGI.
> 100 µM

Reported TGI, compound CCn1c2ccccc2c2ccc(C3C4C(=O)N(c5cccc6ccccc56)C(=O)C4ON3C(C(N)=O)c3ccccc3)cc21 (centres undefined) : ____
> 25 µM

Which TGI value belongs to COc1ccc(C[C@@H](C(=O)N[C@@H](C)C(N)=O)N(C)C(=O)[C@@H]2CCCN2C(=O)[C@H](CC(C)C)NC(=O)C(C)NC(=O)OCc2ccccc2)cc1 (some centres undefined) (Cbz-[ξA]LP[NMeY](Me)A-NH2) ?
> 100 µM

Give its TGI value. Item: `O=C1CCC(=O)c2ccccc2N1`
> 100 µM

----------
- System: A498 renal
- test protocol: NCI tumour cell line growth inhibition, 48 h
property: log10(TGI) (log10 of the value in µM)
Heads up: the numbers are on a log10 scale; they represent TGI in µM.

Which log10(TGI) value is on record for CCn1c2ccccc2c2ccc(C3C4C(=O)N(c5cccc6ccccc56)C(=O)C4ON3C(C(N)=O)c3ccccc3)cc21 (centres undefined) ?
0.84

Given `Cc1cn2c(/C=N/N=C(N)N)c(-c3ccc([N+](=O)[O-])cc3)nc2s1` , state its recorded log10(TGI).
0.48

// lookup log10(TGI) for `COc1cc(-c2nc(N)c(C#N)c3c2CCS(=O)(=O)c2ccc(C)cc2-3)cc(OC)c1OC`
1.84

Need log10(TGI), item CCCCCCCCCCCCC(O)C1CCC(C(O)CCCCC(O)CCCCCC2CC(CC(C)=O)C(=O)O2)O1 (centres undefined)
1.31

Dear colleague, I am looking for the recorded log10(TGI) of the following molecule: Nc1c(C(=O)Nc2cccc(Cl)c2)sc2nc3c(cc12)C(O)CCC3 (centres undefined)
1.13

Recorded log10(TGI) of `Cc1cc(O)ccc1C1(c2ccc(O)cc2C)OC(=O)c2ccccc21` , please.
1.52

What value of log10(TGI) has been recorded for this entry: CNC(=O)/C=C/C1=CN2C(=O)c3ccc(C)c(O)c3NC(OC)C2C1 (centres undefined)
-0.15

----------
- Tested on: RXF 393 renal
- test protocol: NCI tumour cell line growth inhibition, 48 h
property: TGI

Provide value of TGI for this record tested with RXF 393 renal: c1cc2c(cc1C1OCC3C(c4ccc5c(c4)OCO5)OCC13)OCO2 (stereo not drawn)
> 100 µM

Provide value of TGI for this record tested with RXF 393 renal: `Nc1c(S(=O)(=O)O)cc(S(=O)(=O)O)c2ccc(N=Nc3ccccc3)c(O)c12`
> 100 µM

Request - read-out TGI | tested on RXF 393 renal | compound `CN1C(=O)C(=Cc2ccc(Br)cc2)C(=O)N(C)C1=O`
> 100 µM

Form field: TGI recorded for CCN(N=O)C1C2(CCCC2)NC(=O)C12CCCC2 (stereo not drawn) with RXF 393 renal (enter value)
> 100 µM

Quick check: TGI on RXF 393 renal, item `O=C(Cc1cc(O)ccc1O)NO` ?
> 100 µM

Record lookup: for RXF 393 renal, what TGI belongs to `COc1ccc(N=Nc2ccc(O)c(=O)cc2)cc1` ?
> 100 µM

Give TGI (RXF 393 renal) of the following compound: `C/C=C1\Oc2ccc(OC)cc2S1(=O)=O`
> 100 µM

Query the reported TGI for RXF 393 renal; item: CCn1c2ccccc2c2ccc(C3C4C(=O)N(c5cccc6ccccc56)C(=O)C4ON3C(C(N)=O)c3ccccc3)cc21 (stereo not drawn)
> 25 µM

Report TGI for CCOC(=O)C1=C(C)NC2SC(=O)/C(=C\c3cccc(Cl)c3)N2C1c1ccccc1 (stereo not drawn) tested on RXF 393 renal.
> 100 µM

Write down the reported TGI of CCCCC(CC)C(=O)Oc1ccc(C(=O)c2ccccc2)c(O)c1 (stereo not drawn) , test system: RXF 393 renal.
> 100 µM

Write down the reported TGI of `COc1ccccc1N1CCN(S(=O)(=O)c2ccc(Cl)cc2)C1=N` , test system: RXF 393 renal.
> 100 µM

Which TGI is reported with RXF 393 renal for this entry: CNC(=O)/C=C/C1=CN2C(=O)c3ccc(C)c(O)c3NC(OC)C2C1 (stereo not drawn) ?
< 0.01 µM

Entry `COc1ccc(OC)c(C2=C(c3cn(C)c4ccccc34)C(=O)NC2=O)c1` , system RXF 393 renal: what TGI was measured?
> 25 µM

API: value(readout=TGI, system=RXF 393 renal) for record `CC(C)n1cc(-c2ccc3c(c2)N(C)CC3)c2c(NS(=O)(=O)c3ccn(C)n3)ccnc21`
> 100 µM

Hi! What's the reported TGI for `COc1cc2c(Nc3ccc(-c4ccc(N)cc4)cc3)ncnc2c(OC)c1OC` on RXF 393 renal?
> 95.9 µM

RXF 393 renal / TGI / Cc1cc(C)c(NS(=O)c2ccc(Cl)cc2)c(C)c1 (stereo not drawn) : value?
> 100 µM

API: value(readout= TGI, system= RXF 393 renal, query= NC(CCc1nc(-c2cccc([N+](=O)[O-])c2)cs1)C(=O)O (stereo not drawn) )
> 100 µM

Any idea what TGI came out for `CN(C)c1n2c3ccc([N+](=O)[O-])cc3n3c(N(C)C)[n+]4ccccc4c3c2c2cccc[n+]12` on RXF 393 renal?
> 100 µM
